The values you see were collected from patent US20240398768A1.

- Assay Remarks: Phase 1/2 clinical study: pharmacokinetics
- Type: in vivo, human
- Condition Context: human, plasma, oral, 100 mg, Cycle 1 Day 1; 100 mg QD; geometric mean; read-out: Vz/F
Readout Label: Vd/F (L)
Number in L, nothing else.

Asked: Recorded Vd/F of CCn1ncc2c1-c1cnc(N)c(c1)O[C@H](C)c1cc(F)ccc1-c1nn(C)nc1C2 , please.
Given back: 267

---

- Assay Remarks: Phase 1/2 clinical study: pharmacokinetics
- Format: in vivo, human
- Condition Context: human, plasma, oral, 25 mg, Cycle 1 Day 1; 25 mg QD; geometric mean
Readout Label: AUC(0-inf) (ng·h/mL)
Number in ng·h/mL, nothing else.

Asked: Recorded AUC(0-inf) of CCn1ncc2c1-c1cnc(N)c(c1)O[C@H](C)c1cc(F)ccc1-c1nn(C)nc1C2 [Compound 1] , please.
Given back: 1960
